Data export: log10 IC50 values recorded with UniProt P0A017.
Remember, log10 of IC50, in nM.

// worked examples, log10 IC50 included
[[record]]
compound = "CCc1nc(N)nc(N)c1C#CC(SC)c1cc(-c2ccc(C(=O)O)cc2)ccc1OC (stereo not drawn) [Compound 29]"
readout_type = "log10 IC50"
measurement = 1.57

[[record]]
compound = "CCc1nc(N)nc(N)c1C#CCc1cc(-c2ccccc2C(=O)O)ccc1OC [Compound 14]"
readout_type = "log10 IC50"
measurement = 2.20

[[record]]
compound = "CCc1nc(N)nc(N)c1C#C[C@H](C)c1cc(-c2ccc(C(=O)OC)cc2)ccc1OC [Compound 33]"
readout_type = "log10 IC50"
measurement = 1.34

[[record]]
compound = "CCc1nc(N)nc(N)c1C#CCc1cc(-c2ccccc2C(=O)O)ccc1OC [Compound 13]"
readout_type = "log10 IC50"
measurement = 2.56


Q: Look up log10 IC50 for this compound: CCc1nc(N)nc(N)c1C#C[C@@H](C)c1cc(-c2ccc(C(=O)OC)cc2)ccc1OC [Compound 34]
A: 2.31

Q: For CCc1nc(N)nc(N)c1C#CCc1cc(-c2ccc(C(=O)O)cc2)ccc1OC [Compound 15] then?
A: 1.51

---

System: Mtb 56
Type: cell-based, Mycobacterium tuberculosis
Details: MDR strain
Reported MIC Mtb56 values follow for various compounds
// note: answer is a bare numeric in µg/mL

[[record]]
compound = "CCc1nc(N)nc(N)c1C#CC(C)c1cc2c(c(-c3cncn3C)c1)OCO2 (stereo not drawn) [Compound 54]"
readout_type = "MIC Mtb56"
unit_info = "µg/mL"
measurement = 8

[[record]]
compound = "CCc1nc(N)nc(N)c1C#CCc1cc(-c2cncn2C)ccc1OC [Compound 56]"
readout_type = "MIC Mtb56"
unit_info = "µg/mL"
measurement = 4

[[record]]
compound = "CCc1nc(N)nc(N)c1C#CCc1cc(-c2ccc(C(=O)O)cc2)ccc1OC [Compound 15]"
readout_type = "MIC Mtb56"
unit_info = "µg/mL"
measurement = 16

[[record]]
compound = "CCc1nc(N)nc(N)c1C#C[C@H](C)c1cc2c(c(-c3ccncc3)c1)OCO2 [Compound 55]"
readout_type = "MIC Mtb56"
unit_info = "µg/mL"
measurement = 8

[[record]]
compound = "CCc1nc(N)nc(N)c1C#CCc1ccc(OC)c(-c2ccc(C(=O)O)cc2)c1 [Compound 59]"
readout_type = "MIC Mtb56"
unit_info = "µg/mL"
measurement = 0.5


Continue with the next compound.
Q: Look up MIC Mtb56 for this compound: CCc1nc(N)nc(N)c1C#CC(C)c1cc(OC)cc(-c2ccc(C(=O)O)cc2)c1 (stereo not drawn) [Compound 58]
A: 0.06

The reported measurements were obtained from patent US10870625B2.
